- systemUnderTest: Human pyruvate kinase R (PKR) (Homo sapiens)
- Construct: Human pyruvate kinase R (PKR), residues 14-574; 6x-His (N, cleaved yes); 8x-Arg (N, cleaved yes); SUMO (N, cleaved yes); host or cells: E. coli
- Sequence (P30613 14-574): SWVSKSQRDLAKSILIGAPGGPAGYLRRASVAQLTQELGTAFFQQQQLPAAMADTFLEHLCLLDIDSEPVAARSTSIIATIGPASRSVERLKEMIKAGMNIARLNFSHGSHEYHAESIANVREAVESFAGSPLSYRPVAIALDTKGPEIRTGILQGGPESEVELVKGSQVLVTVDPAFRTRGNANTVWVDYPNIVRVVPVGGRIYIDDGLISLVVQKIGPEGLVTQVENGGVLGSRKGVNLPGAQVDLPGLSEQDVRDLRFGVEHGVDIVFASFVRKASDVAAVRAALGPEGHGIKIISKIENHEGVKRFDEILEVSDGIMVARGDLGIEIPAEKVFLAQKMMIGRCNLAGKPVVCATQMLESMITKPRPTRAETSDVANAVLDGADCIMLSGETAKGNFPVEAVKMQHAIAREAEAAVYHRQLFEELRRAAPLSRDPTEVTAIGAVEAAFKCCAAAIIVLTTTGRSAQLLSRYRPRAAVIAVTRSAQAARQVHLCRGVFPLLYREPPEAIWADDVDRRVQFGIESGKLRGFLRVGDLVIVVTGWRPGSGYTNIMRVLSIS
- methodNotes: Biochemical assay for activation of pyruvate kinase R (Kinase-Glo luminescence, ATP generation)
- measurementSetup: 0.1 nM PKR, 2 mM FBP, 0.3 mM ADP, 0.1 mM PEP
quantityName: AC50 (nM)
One number for each entry, in nM.

Known AC50 results, listed for orientation:
• O=C([C@H](NCCO)c1ccccc1F)N1Cc2cn(S(=O)(=O)c3ccc4ncccc4c3)nc2C1 [Compound 106] = 44
• O=S(=O)(c1ccc2c(c1)NCCO2)N1Cc2cn(S(=O)(=O)c3ccc4ncsc4c3)nc2C1 [Compound 12] = 41
• O=C([C@H](O)c1ncccc1F)N1Cc2cn(S(=O)(=O)c3ccc4ncsc4c3)nc2C1 (single isomer, unassigned) [Compound 74] = 8.5

// switching to the query compound
Find the recorded AC50 belonging to O=C([C@H](CO)c1ccccc1)N1Cc2cn(S(=O)(=O)c3ccc4ncccc4c3)nc2C1 [Compound 82] and report it. 5

###

- systemUnderTest: Human pyruvate kinase R (PKR) (Homo sapiens)
- Construct: Human pyruvate kinase R (PKR), residues 14-574; 6x-His (N, cleaved yes); 8x-Arg (N, cleaved yes); SUMO (N, cleaved yes); host or cells: E. coli
- methodNotes: Biochemical assay for activation of pyruvate kinase R (Kinase-Glo luminescence, ATP generation)
- measurementSetup: maximal activation level relative to the activation level achieved by AG-348 @ 10 μM
Assignment: determine reported PKR % activation for the given compounds.
One number for each entry, in %.

- O=C(N1Cc2cn(S(=O)(=O)c3ccc4ncsc4c3)nc2C1)[C@]1(c2ccccn2)CCOC1 (single isomer, unassigned) [Compound 20]: 113
- Cc1cccc([C@@]2(C(=O)N3Cc4cn(S(=O)(=O)c5ccc6ncsc6c5)nc4C3)CCOC2)n1 (single isomer, unassigned) [Compound 36]: 38
- O=C([C@@H](CO)c1ccccc1)N1Cc2cn(S(=O)(=O)c3ccc4ncsc4c3)nc2C1 (single isomer, unassigned) [Compound 1]: 82

List PKR % activation for every entry below, keeping the order given.
1. Cc1ncccc1[C@@H](N)C(=O)N1Cc2cn(S(=O)(=O)c3ccc4ncsc4c3)nc2C1 (single isomer, unassigned) [Compound 47]
2. O=C(N1Cc2cn(S(=O)(=O)c3ccc4c(c3)NCCO4)nc2C1)[C@]1(c2ccccn2)CCOC1 (single isomer, unassigned) [Compound 46]
3. O=C([C@@H](c1ccccc1)N1CCOCC1)N1Cc2cn(S(=O)(=O)c3ccc(OC(F)F)cc3)nc2C1 (single isomer, unassigned) [Compound 107]

[40, 45, 0]

###

- systemUnderTest: Human pyruvate kinase R (PKR) (Homo sapiens)
- Construct: Human pyruvate kinase R (PKR), residues 14-574; 6x-His (N, cleaved yes); 8x-Arg (N, cleaved yes); SUMO (N, cleaved yes); host or cells: E. coli
- methodNotes: Biochemical assay for activation of pyruvate kinase R (Kinase-Glo luminescence, ATP generation)
- measurementSetup: 0.1 nM PKR, 2 mM FBP, 0.3 mM ADP, 0.1 mM PEP
// returns not satisfied unless AC50 is strictly below 60 nM, in which case satisfied

* O=CN[C@@H](C(=O)N1Cc2cn(S(=O)(=O)c3ccc(OC(F)F)cc3)nc2C1)c1ccccc1F | satisfied

Is it true that AC50 reported for O=C(N1Cc2cn(S(=O)(=O)c3ccc4ncsc4c3)nc2C1)C1(c2ccccc2)CCOC1 (stereo not shown) is less than 60 nM? not satisfied

Is 60 nM strictly greater than the compound's reported AC50? compound: C[C@@H](O)[C@H](C(=O)N1Cc2cn(S(=O)(=O)c3ccc4ncsc4c3)nc2C1)c1ccccc1 [Compound 4] not satisfied

Item O=C([C@H](O)c1ccccc1F)N1Cc2cn(S(=O)(=O)c3ccc(OC(F)F)cc3)nc2C1 : AC50 beneath 60 nM, strictly? satisfied

Just wondering, is AC50 of O=C([C@H](CO)c1ccccc1)N1Cc2cn(S(=O)(=O)c3ccc(OC4COC4)nc3)nc2C1 below 60 nM? not satisfied

Item Cc1ncccc1[C@@H](N)C(=O)N1Cc2cn(S(=O)(=O)c3ccc4ncsc4c3)nc2C1 (single isomer, unassigned) [Compound 47] : AC50 beneath 60 nM, strictly? not satisfied

Problem: For the compound O=C([C@H](O)c1ccccc1Cl)N1Cc2cn(S(=O)(=O)c3ccc4cn[nH]c4c3)nc2C1 , is AC50 under 60 nM? satisfied

Each recorded value in this set is attributed to patent US20230159538A1.
